The reported numbers originate from the supplement of paper PMC10065799.

molecular target: EPHB1 (UniProt P54762); assay: phosphorylation enrichment, bacterial display (enrichment ratio); higher = better substrate or ligand; peptides without Tyr show the background;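 also: 11-residue human phosphosite peptides and single-mutation variants displayed on the E. coli surface, counted by deep sequencing, each peptide's frequency after selection divided by its frequency in the unselected input library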;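 also: frequency after pTyr selection over input frequency; kinase dosed for 20-30% of maximal phosphorylation in three min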
Sequence (P54762 whole entry, looked up): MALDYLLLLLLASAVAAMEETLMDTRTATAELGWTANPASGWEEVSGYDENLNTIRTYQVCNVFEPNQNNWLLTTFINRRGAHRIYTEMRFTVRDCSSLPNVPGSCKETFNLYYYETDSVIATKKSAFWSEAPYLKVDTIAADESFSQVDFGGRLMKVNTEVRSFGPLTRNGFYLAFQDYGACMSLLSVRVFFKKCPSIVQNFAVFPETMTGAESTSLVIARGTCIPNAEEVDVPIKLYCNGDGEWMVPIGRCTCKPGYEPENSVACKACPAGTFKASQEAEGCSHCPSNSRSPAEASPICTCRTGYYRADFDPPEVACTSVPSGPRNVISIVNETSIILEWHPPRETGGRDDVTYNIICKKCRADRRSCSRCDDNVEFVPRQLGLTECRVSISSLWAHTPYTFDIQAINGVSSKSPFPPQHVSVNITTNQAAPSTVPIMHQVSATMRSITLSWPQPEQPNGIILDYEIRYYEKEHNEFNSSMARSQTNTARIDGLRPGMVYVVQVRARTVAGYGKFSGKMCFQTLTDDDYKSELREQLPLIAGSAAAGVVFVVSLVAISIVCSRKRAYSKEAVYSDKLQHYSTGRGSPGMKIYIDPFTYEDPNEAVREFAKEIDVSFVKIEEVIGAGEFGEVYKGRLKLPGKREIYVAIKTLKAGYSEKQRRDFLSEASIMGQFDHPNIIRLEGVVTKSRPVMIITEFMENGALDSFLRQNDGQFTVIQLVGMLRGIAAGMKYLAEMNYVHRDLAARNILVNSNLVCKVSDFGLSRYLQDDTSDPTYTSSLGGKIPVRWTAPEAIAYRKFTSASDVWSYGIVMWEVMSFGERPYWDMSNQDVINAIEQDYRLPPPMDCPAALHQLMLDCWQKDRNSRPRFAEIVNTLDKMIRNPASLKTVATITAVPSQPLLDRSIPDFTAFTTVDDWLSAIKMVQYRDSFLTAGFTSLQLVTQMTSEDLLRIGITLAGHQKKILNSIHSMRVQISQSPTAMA
Binary classification by phosphorylation enrichment, with 0.6 as an inclusive lower bound for True; all other cases are False.

sequenceString | assignedCategory
SLDHPYEKPRK [INAVA_Y333] | False
GKMPQYLESMQ [CYB5R3_Y130_S128P] | False
KLKEKYQKDIA [HMGB1_Y155_E156Q] | False
SVETPYVSVTF [NDRG2_Y47_G48V] | True
EGLKVYVNGTL [ADGRD1_Y183] | True
TESNNYIYKTL [FAM83B_Y637] | False
IIEDPYFGNDS [ACP1_Y132_YF] | True
KAESWYQTKYE [KRT75_Y342_E337K] | False
SECCKYKIDNL [OSMR_Y689_P694L] | False
MRALIYNSSTV [PLEKHA7_Y243_A248V] | False
RCNHPYLINGA [CHD7_Y1256_C1251R] | False
DDHFTYSRFPW [LY75_Y888_YF] | True
VGRVGYVSGWG [HP_Y280] | False
AERKLYRNVML [ZNF569_Y33_Q29E] | False
HNLYSYPTKYE [MYO3A_Y1396_H1400Y] | True
SNKLHYQLEQE [PDPR_Y110_Y109H] | False
IQRSLYDCPAS [PDGFRA_Y762_R764C] | True
SGTFQYIIAKF [FOXL2_Y83_I80T_YF] | False
ANNPLYKEATS [ITGB3_Y773] | False
TFEFRYLEDRD [CNOT3_Y746_YF] | True
SGPRRYTIATL [TTR_Y125_A129T] | True
HSKGIYFVQLE [MGAT4B_Y262_Q257H_YF] | True
DHAGEYGAEAL [HBA1_Y25_A20D] | False
LTSKPYAFTAW [NDUFS1_Y236_R241W] | False
AHPIIYTIIEA [PYKtide_no-pT_2014] | True
GHNDVYISEHV [GRIN2A_Y1423] | False
IVFVICDEVVK [SLC25A1_Y297_Y297C] | True
TTKGAYSLSIR [YES1_Y194] | False
TDGIAYEFRVI | True
AEVDTYCRHNY [HLA-DRB1_Y107_A103E] | False
RHPFFFAPELL [ALB_Y174_Y174F_YF] | True
TKEPKYEGAGS [KIAA1210_Y1615] | False
MANYVYKAGPS [MAML2_Y515_M514V] | False
RFLRGYRQDAF [HLA-A_Y137_YF] | True
ERSMSYCDESR [SMG1_Y143_S144C] | False
PRSRSYFSTSI [REPS2_Y462_S463F] | False
YRRITYHNWRH [PDE6B_Y556] | False
VCDALYPPGPP | False
RWHEGYRQTPR [CD44_Y412_K417R] | False
RNLLIYTEFGK [HGD_Y166_G161R] | True
LKDEDYLKDTV [HAUS3_Y582_I586T] | True
WSQAMYPDLGP [STARD8_Y330_R327Q] | False
INITIYGKTFC [EFHC1_Y177_R182C] | True
MSSHHCDYKKY [ZNF445_Y428_Y428C] | False
LGPSDYFGEIV [PRKAR1A_Y323_A328V] | True
EEQFFYEKAIL [BCCIP_Y257_E254Q] | False
LGSWTYTKTVS [ROS1_Y144] | True
LGGAMYFLEAE [PKHD1_Y452_YF] | True
ARTNEYKIIRS [INA_Y87_T92S] | False
KVKVEYDMTVP [AHNAK_Y964_G962V] | False
RQNNSYTCFTA [SLC20A2_Y386_R382Q_YF] | True
DTKPVYQNLRQ [BOD1_Y82_A81V] | False
AKVKPYINGTS [IBTK_Y1064_V1065I] | False
RHTRSYDFMEG [FGF7_Y56_YF] | False
PVKAAYQKVVA [HBB_Y131_Q128K] | True
